B1: RIPK4 (parent)
chain: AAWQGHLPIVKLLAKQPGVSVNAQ

variants of: B1; experiment: protein stability index of a GFP-peptide fusion (GPS, HEK-293T) (PSI 1-6); higher = more stable; details: c terminus: a fixed tail appended;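 further: lentivirally expressed fusions sorted by FACS into six bins by GFP to DsRed ratio, PSI derived from sequencing read proportions per bin multiplied by bin number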
Each record's class is read off its protein stability index using these ranges: bottom range: < 2; center range: ≥ 2 and < 3; top range: ≥ 3

| variantCode | answerLabel |
| --- | --- |
| A14P | top range |
| Q24M | bottom range |
| A1P | center range |
| I9Y | center range |
| P8G | bottom range |
| V10H | center range |
| H6I | center range |
| Q16A | center range |
| I9A | top range |
